B1: Hairpin Ribozyme (parent)
chain: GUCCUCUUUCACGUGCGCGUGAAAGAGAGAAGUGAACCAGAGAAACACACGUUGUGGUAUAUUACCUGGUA

variants of: B1; experiment: self-cleavage, relative activity (ratio to wild type); higher = more cleavage; co-transcriptional

mutation.notation	self-cleavage
A43G U60G	0.0362
G1A G51C	0.0527
U62C A64C	0.149
A22C C66G	0.0576
A28C G69U	0.0989
U33C C38G	0.123
U7A C65G	0.284
G51U A61C	0.109
C18G A59U	0.239
G42U A59C	0.118
C18G G29U	0.201
C38G G42C	0.134
G27C A47C	0.0432
U7C G69C	0.17
